// provenance: patent US20120316071A1

system: T1, Recombinant Human DLL4 (human, UniProt Q9NR61 27-524)
T1 construct: also called delta-like protein 4; rHuman DLL4
test: ELISA, DLL4 coated on plate, Fab at 100 nM, absorbance at 450 nm minus blank
recorded endpoint: ELISA Signal-blank (100 nM Fab)
A bare number is all that is needed in reply.

>>> reported_result("Fab VH5-51_IGHD5-18*01>3_IGHJ4*01 G100K/G104T G24T/S28R/G35V (H:KT TRV) & V3-4_IGLJ1*01 G97A (Fab, V domains shown, Fab; expressed in E. coli with CH1 (Plasmid A, His6 and Flag tags) and lambda CL (Plasmid E); also called H:KT TRV & G97A) VH: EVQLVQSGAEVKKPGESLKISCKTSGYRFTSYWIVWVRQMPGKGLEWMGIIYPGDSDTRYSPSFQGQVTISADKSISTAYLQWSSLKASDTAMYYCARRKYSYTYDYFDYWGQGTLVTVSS VL: QTVVTQEPSFSVSPGGTVTLTCGLSSGSVSTSYYPSWYQQTPGQAPRTLIYSTNTRSSGVPDRFSGSILGNKAALTITGAQADDESDYYCVLYMGSAISYVFGTGTKVTVL")
0.129
>>> reported_result("Fab VH5-51_IGHD5-18*01>3_IGHJ4*01 G100K/G104T G24T/S28R/G35V (H:KT TRV) & V3-4_IGLJ1*01 T78K (Fab, V domains shown, Fab; expressed in E. coli with CH1 (Plasmid A, His6 and Flag tags) and lambda CL (Plasmid E); also called H:KT TRV & T78K) VH: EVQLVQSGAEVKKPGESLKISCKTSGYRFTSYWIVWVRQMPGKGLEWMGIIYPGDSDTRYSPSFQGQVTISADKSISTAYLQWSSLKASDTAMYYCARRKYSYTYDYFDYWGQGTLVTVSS VL: QTVVTQEPSFSVSPGGTVTLTCGLSSGSVSTSYYPSWYQQTPGQAPRTLIYSTNTRSSGVPDRFSGSILGNKAALTIKGAQADDESDYYCVLYMGSGISYVFGTGTKVTVL")
0.48
>>> reported_result("Fab VH5-51_IGHD5-18*01>3_IGHJ4*01 G100K/G104T G24T/S28R/G35V (H:KT TRV) & V3-4_IGLJ1*01 S30A (Fab, V domains shown, Fab; expressed in E. coli with CH1 (Plasmid A, His6 and Flag tags) and lambda CL (Plasmid E); also called H:KT TRV & S30A) VH: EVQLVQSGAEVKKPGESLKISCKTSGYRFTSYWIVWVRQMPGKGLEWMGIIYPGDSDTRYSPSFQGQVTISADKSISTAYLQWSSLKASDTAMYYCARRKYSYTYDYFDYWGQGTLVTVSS VL: QTVVTQEPSFSVSPGGTVTLTCGLSSGSVATSYYPSWYQQTPGQAPRTLIYSTNTRSSGVPDRFSGSILGNKAALTITGAQADDESDYYCVLYMGSGISYVFGTGTKVTVL")
0.344

Read the next record carefully.
Request: # get_value(readout='ELISA Signal-blank (100 nM Fab)', item= Fab VH5-51_IGHD5-18*01>3_IGHJ4*01 G100K/G104T G24T/S28R/G35V (H:KT TRV) & V3-4_IGLJ1*01 V29A (Fab, V domains shown, Fab; expressed in E. coli with CH1 (Plasmid A, His6 and Flag tags) and lambda CL (Plasmid E); also called H:KT TRV & V29A) VH: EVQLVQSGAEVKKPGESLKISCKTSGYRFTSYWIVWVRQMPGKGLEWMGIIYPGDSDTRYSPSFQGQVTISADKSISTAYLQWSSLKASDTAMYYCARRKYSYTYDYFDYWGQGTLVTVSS VL: QTVVTQEPSFSVSPGGTVTLTCGLSSGSASTSYYPSWYQQTPGQAPRTLIYSTNTRSSGVPDRFSGSILGNKAALTITGAQADDESDYYCVLYMGSGISYVFGTGTKVTVL )
Response: 0.394
